# MEASURED_ON: METTL3-14 (Homo sapiens, UniProt Q86U44)
# Sequence (Q86U44 whole entry): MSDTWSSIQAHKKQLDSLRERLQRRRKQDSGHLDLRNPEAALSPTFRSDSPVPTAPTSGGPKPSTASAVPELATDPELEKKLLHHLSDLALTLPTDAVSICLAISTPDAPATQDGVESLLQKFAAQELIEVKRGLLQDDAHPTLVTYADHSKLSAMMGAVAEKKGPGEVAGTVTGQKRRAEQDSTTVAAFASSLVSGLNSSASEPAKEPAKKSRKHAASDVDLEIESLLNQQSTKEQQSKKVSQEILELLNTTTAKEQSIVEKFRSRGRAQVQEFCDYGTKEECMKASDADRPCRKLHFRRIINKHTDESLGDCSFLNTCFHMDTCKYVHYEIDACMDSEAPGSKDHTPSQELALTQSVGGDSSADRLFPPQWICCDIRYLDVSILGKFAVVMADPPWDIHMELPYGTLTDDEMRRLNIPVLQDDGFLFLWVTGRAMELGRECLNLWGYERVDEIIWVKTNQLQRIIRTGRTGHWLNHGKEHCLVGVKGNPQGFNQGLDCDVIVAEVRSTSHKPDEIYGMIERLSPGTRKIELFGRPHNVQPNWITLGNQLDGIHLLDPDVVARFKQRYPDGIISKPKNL
# Sequence (Q9HCE5 whole entry partner): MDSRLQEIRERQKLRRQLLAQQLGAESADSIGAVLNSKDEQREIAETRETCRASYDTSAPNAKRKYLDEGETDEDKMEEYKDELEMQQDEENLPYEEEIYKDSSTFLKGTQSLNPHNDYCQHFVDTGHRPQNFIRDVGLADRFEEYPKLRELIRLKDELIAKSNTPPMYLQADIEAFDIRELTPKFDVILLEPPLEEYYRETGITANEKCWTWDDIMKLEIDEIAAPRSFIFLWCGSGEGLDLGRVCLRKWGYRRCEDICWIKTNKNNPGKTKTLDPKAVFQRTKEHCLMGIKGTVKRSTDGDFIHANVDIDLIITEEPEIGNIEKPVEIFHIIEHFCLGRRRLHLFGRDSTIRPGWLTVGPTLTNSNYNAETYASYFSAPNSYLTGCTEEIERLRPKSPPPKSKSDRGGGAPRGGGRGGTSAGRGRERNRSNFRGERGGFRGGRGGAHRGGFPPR
# PROCEDURE_DETAILS: Protein methyltransferases selectivity profile
# Type: biochemical
MEASUREMENT_LABEL: IC50 (nM)
Write the value in nM as a bare number.

Suppose we examine the compound `Nc1ncnc2c1ncn2[C@@H]1O[C@H](CSCC[C@H](N)C(=O)O)[C@@H](O)[C@H]1O` ; what IC50 value has been reported?
153

* * *

# MEASURED_ON: METTL3 (Homo sapiens, UniProt Q86U44)
# Construct: METTL3–14 degradation up to 70% of the endogenous level; endogenous in cells; host or cells: MOLM-13, PC3, DU145
# Sequence (Q86U44 2-580 limits assumed): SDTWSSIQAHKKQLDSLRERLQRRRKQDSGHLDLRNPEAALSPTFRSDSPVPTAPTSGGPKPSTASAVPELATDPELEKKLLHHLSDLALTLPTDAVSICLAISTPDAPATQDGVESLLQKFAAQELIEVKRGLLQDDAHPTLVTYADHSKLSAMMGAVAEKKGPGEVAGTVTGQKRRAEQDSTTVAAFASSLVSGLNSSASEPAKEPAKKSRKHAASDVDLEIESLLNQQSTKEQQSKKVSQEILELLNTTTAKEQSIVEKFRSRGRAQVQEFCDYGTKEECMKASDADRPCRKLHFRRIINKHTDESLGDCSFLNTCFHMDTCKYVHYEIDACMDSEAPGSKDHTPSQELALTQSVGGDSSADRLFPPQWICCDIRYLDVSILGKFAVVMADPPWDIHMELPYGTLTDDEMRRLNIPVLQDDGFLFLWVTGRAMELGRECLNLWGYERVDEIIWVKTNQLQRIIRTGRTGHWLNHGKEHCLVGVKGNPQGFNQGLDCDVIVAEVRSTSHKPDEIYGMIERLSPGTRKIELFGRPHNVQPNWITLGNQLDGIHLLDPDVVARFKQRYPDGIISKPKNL
# Sequence (Q9HCE5 whole entry partner): as the sequence (Q9HCE5 whole entry partner) above
# PROCEDURE_DETAILS: Cellular degradation assay (Western blot), METTL3 in MOLM-13
# Type: cell-based
# CONDITION_DETAILS: MOLM-13, 24 h, 2 μM compound
MEASUREMENT_LABEL: MOLM-13 West. blot at 24h 2 μM comp conc. Degradation (%) of METTL3

Suppose we examine the compound CC1(C)CCN(Cc2cc(F)c(N3CC(=O)NC4(CCN(c5cc(NCCCNC(=O)CCCCCCCCCCn6cc(CNc7cccc8c7C(=O)N(C7CCC(=O)NC7=O)C8=O)nn6)ncn5)CC4)C3)cc2F)CC1 (centres unmarked) ; what MOLM-13 West. blot at 24h 2 μM comp conc. Degradation (%) of METTL3 value has been reported?
19 ± 20%

* * *

# MEASURED_ON: ternary complex CRBN/PROTAC/METTL3–14 (Homo sapiens, UniProt Q86U44+Q96SW2)
# Construct: methyltransferase domains (MTD) of METTL3 (residues 354–580); His6 (N, cleaved yes); made in house; host or cells: METTL3-MTD/METTL14-MTD: baculovirus/Sf9; CRBN-TBD: E. coli Rosetta (DE3), co-expressed with BirA
# Sequence (Q86U44 354-580): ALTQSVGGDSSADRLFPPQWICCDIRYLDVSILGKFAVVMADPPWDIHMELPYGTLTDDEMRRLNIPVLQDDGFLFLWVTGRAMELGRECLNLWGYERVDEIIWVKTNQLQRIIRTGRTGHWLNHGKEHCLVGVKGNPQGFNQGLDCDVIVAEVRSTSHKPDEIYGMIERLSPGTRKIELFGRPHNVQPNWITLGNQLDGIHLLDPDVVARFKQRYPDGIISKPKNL
# Sequence (Q9HCE5 107-395 partner limits assumed): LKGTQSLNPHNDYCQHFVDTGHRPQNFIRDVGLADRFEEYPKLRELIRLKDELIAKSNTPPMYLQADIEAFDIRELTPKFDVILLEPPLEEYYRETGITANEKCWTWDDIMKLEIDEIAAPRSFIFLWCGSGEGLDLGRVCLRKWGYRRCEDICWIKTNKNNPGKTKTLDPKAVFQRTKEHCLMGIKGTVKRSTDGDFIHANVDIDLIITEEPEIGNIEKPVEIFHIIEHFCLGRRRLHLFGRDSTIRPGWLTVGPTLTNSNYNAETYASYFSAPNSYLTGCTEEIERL
# Sequence (Q96SW2 318-442): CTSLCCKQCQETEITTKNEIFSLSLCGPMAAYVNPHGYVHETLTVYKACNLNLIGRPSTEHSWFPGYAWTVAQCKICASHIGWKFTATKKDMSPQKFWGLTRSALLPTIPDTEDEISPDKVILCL
# PROCEDURE_DETAILS: FRET-based ternary complex formation assay (TCFA)
# Assay type: binding
# CONDITION_DETAILS: Hook curve amplitude, fraction of the maximum of compound 16
// values below are reported TCFA amplitude (mean ± SEM)
Simply state the number, no unit and no words.

Example compounds with recorded TCFA amplitude (mean ± SEM):
CC1(C)CCN(Cc2ccc(N3CC(=O)NC4(CCN(c5cc(NCCCNC(=O)CCCCCCCCCCCCCCNc6cccc7c6CN(C6CCC(=O)NC6=O)C7=O)ncn5)CC4)C3)cc2)CC1 (stereo not shown) = 0.1
CC1(C)CCN(Cc2cc(F)c(N3CC(=O)NC4(CCN(c5cc(NCc6cccc(CNC(=O)CCCCCCCCNc7cccc8c7CN(C7CCC(=O)NC7=O)C8=O)c6)ncn5)CC4)C3)cc2F)CC1 (stereo not shown) = 1.0
CC1(C)CCN(Cc2cc(F)c(N3CC(=O)NC4(CCN(c5cc(NCc6cccc(CNC(=O)CCCCCCCCCCNc7cccc8c7CN(C7CCC(=O)NC7=O)C8=O)c6)ncn5)CC4)C3)cc2F)CC1 (stereo not shown) = 1.0

Suppose we examine the compound CC1(C)CCN(Cc2ccc(N3CC(=O)NC4(CCN(c5cc(NCCCNC(=O)CCOCCOCCOCCOCCNc6cccc7c6C(=O)N(C6CCC(=O)NC6=O)C7=O)ncn5)CC4)C3)cc2)CC1 (stereo not shown) ; what TCFA amplitude (mean ± SEM) value has been reported?
0.3

Here is the next compound: CC1(C)CCN(Cc2cc(F)c(N3CC(=O)NC4(CCN(c5cc(NCC6CCN(C(=O)CCCNc7cccc8c7C(=O)N(C7CCC(=O)NC7=O)C8=O)CC6)ncn5)CC4)C3)cc2F)CC1 (stereo not shown)
1.1

Here is the next compound: CC1(C)CCN(Cc2cc(F)c(N3CC(=O)NC4(CCN(c5cc(NCCN6CCN(C(=O)CCCNc7cccc8c7C(=O)N(C7CCC(=O)NC7=O)C8=O)CC6)ncn5)CC4)C3)cc2F)CC1 (stereo not shown)
1.0

Here is the next compound: CC1(C)CCN(Cc2cc(F)c(N3CC(=O)NC4(CCN(c5cc(NCCCNC(=O)CCCCCCCCCCn6cc(CNc7cccc8c7C(=O)N(C7CCC(=O)NC7=O)C8=O)nn6)ncn5)CC4)C3)cc2F)CC1 (stereo not shown)
0.8

Here is the next compound: CC1(C)CCN(Cc2ccc(N3CC(=O)NC4(CCN(c5cc(NCCCNC(=O)CCCCCCCCn6cc(CNc7cccc8c7C(=O)N(C7CCC(=O)NC7=O)C8=O)nn6)ncn5)CC4)C3)cc2)CC1 (stereo not shown)
0.4

Here is the next compound: CC1(C)CCN(Cc2ccc(N3CC(=O)NC4(CCN(c5cc(NCCCNC(=O)CCOCCOCCOCCOCCOCCNc6cccc7c6C(=O)N(C6CCC(=O)NC6=O)C7=O)ncn5)CC4)C3)cc2)CC1 (stereo not shown)
0.4

Here is the next compound: CC1(C)CCN(Cc2cc(F)c(N3CC(=O)NC4(CCN(c5cc(NCCCNC(=O)CCCCCCCCNc6cccc7c6CN(C6CCC(=O)NC6=O)C7=O)ncn5)CC4)C3)cc2F)CC1 (stereo not shown)
1.0
